Test: self-splicing fitness, log relative to wild type (ln ratio); higher = more splicing; Tetrahymena group I intron in knt gene, E. coli kanamycin selection, DiMSum; sequences stand for … in CUCUCU…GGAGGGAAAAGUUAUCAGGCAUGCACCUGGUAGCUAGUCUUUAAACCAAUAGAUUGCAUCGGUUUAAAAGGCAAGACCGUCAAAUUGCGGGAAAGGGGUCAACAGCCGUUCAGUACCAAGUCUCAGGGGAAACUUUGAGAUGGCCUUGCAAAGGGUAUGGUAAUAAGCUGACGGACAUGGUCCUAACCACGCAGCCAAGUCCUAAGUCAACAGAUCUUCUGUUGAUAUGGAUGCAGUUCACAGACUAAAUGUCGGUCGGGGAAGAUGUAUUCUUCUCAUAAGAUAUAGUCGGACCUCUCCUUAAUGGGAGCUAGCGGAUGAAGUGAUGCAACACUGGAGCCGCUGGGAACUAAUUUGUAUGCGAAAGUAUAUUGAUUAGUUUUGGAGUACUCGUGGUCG;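 note: selection with 25 µg/mL kanamycin versus none on LB agar overnight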
Conditions: 30 °C
// label = 1 if self-splicing fitness (ln) is not less than -3, otherwise 0

For this sequence, is measured self-splicing fitness (ln) -3 or higher? `AUGGAGCAAUAUUACGGGUU`
1

Okay, and `GUCAAGCAAUAUUACGGUAG` ?
0

====

Test: self-splicing fitness, log relative to wild type (ln ratio); higher = more splicing; Tetrahymena group I intron in knt gene, E. coli kanamycin selection, DiMSum; sequences stand for … in CUCUCU…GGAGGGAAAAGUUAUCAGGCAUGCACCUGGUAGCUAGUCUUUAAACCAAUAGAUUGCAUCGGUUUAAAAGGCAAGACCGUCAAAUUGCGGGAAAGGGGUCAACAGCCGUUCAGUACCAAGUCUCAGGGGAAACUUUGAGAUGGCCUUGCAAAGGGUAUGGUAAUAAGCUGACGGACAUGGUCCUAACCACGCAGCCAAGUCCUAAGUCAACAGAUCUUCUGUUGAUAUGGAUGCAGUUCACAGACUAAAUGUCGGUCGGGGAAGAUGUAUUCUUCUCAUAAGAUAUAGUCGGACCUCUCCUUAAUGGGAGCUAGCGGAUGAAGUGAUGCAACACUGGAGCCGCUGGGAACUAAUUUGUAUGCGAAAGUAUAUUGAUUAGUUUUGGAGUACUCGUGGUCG
Conditions: 30 °C
Endpoint: self-splicing fitness (ln)
Answers are plain numbers.

Which self-splicing fitness (ln) value is on record for `CCGUAGCAAUAUUACGGACA` ?
-1.88

Please report self-splicing fitness (ln) for every entry that follows.
1. CCUUAGCAAUAUUACGAACG
2. UGAGAGCAAUAUUACGUGUG
3. GUGAAGCAAUAUUACGAAAG
4. AUAUAGCAAUAUUACGGCAC
5. CUAAAGCAAUAUUACGGCUG

1. -0.742
2. -2.9
3. -1.41
4. -2
5. 0.0357

Kindly give each listed record's self-splicing fitness (ln).
1. CCAGAGCAAUAUUACGCGCA
2. AAAGAGCAAUAUUACGCUUC

1: -3.16; 2: -2.33

====

Test: self-splicing fitness, log relative to wild type (ln ratio); higher = more splicing; Tetrahymena group I intron in knt gene, E. coli kanamycin selection, DiMSum; sequences stand for … in CUCUCU…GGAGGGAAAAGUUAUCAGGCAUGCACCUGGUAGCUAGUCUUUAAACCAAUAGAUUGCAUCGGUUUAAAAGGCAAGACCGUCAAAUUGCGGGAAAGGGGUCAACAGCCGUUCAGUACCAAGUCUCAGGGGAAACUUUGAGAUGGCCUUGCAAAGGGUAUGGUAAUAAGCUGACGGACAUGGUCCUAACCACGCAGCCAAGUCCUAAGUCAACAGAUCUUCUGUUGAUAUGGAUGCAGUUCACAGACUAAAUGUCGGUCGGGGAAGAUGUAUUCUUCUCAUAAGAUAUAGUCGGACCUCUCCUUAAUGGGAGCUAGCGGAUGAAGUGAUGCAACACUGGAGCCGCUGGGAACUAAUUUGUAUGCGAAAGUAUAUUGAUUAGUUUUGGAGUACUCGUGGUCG
Conditions: 37 °C
The following ranges of self-splicing fitness (ln) define the classes used here: bottom = under -2, middle = from -2 up to -1, top = -1 and over

Worked examples, 5 sequences total:
Please indicate the class for `CAUCAGCAAUAUUACGAGCU` based on its self-splicing fitness (ln).
bottom

// same read-out, input: `UAUCAGCAAUAUUACGCAAG`
top

What about this sequence? `GACGAGCAAUAUUACGUUGG`
bottom

Can you check `AUUAAGCAAUAUUACGUCGG` next?
middle

Moving on to `CCUAAGCAAUAUUACGAGGC`
bottom

Would you kindly look at the next entry?
Looking at `GUCCAGCAAUAUUACGGUGG` , which class would you pick?
bottom
